tgt: Neuronal acetylcholine receptor subunit alpha-7 (Homo sapiens, UniProt P36544)
Sequence (P36544 whole entry): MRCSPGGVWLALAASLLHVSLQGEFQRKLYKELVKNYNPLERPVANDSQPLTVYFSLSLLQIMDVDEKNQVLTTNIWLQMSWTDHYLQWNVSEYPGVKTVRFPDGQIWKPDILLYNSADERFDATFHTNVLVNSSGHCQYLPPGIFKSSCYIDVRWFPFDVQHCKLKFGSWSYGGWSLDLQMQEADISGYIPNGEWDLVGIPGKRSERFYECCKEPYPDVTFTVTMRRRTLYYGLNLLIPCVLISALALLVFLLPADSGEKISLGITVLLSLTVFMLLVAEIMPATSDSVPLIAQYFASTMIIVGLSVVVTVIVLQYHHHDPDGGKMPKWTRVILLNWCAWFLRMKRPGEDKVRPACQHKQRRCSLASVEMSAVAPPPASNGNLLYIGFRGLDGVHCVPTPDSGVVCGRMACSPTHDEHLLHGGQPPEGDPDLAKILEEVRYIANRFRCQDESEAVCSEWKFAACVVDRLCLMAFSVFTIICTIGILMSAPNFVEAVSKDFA
test-description: Positive allosteric modulation activity at human alpha7 nAChR expressed in Xenopus laevis oocytes assessed as increase in acetylcholine-induced channel current by measuring acetylcholine EC50 at 10 uM at -90 mV holding potential preincubated for 2 mins followed by co-application with acetylcholine for 10 secs by two-electrode voltage clamp method (Rvb = 231.8 +/- 2 uM)
measured-attribute: pEC50
Lab note: report pEC50 as minus log10 of the concentration in molar units, number only.

**Query** Entry Cc1cc(-c2cnc(N)c(C(=O)Nc3c(C)cccc3Cl)c2)ccc1F , system Neuronal acetylcholine receptor subunit alpha-7 (Homo sapiens, UniProt P36544): what pEC50 was measured?
**Result** 3.59
